Reference source for all entries: patent US20160376333A1

Entries annotated with measured Log2 enrichment ratio
measured.target: T1, Epstein-Barr virus BHRF1 a.a. 1-161 with C-terminal avi-6his tag (Epstein-Barr virus)
T1 construct: also called EBV BHRF1; BHRF1-biotin
T1 chain: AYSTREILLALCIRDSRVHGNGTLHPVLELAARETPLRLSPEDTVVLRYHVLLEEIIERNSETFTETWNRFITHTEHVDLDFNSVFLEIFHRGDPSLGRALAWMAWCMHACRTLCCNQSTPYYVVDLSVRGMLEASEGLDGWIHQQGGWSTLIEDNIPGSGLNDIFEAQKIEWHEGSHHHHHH
method.notes: yeast display library, FACS sort at 400 nM BHRF1, deep sequencing
measurement.label: Log2 enrichment ratio (log2)

# binder, measurement.label, units, recorded.result
records = [
    ("Index 24 (designed binder) GELAREAAEEAHRRVEEDARDAKNRLDEFKKRYKITQLSKSDISRATALWIAAALDAIGDIFNAKQKAEKILGLWYKLGLVQLQEFLEKEDKARYHWQAALERAFEAGRDMLEVAAYG", "Log2 enrichment ratio", "log2", -2.95),
    ("Index 06 (designed binder) GRSANDILKQFLEMLQEALRKFDEKKNKIEDEWKQFDLSTQRREEATHKWIAAALMAIGDMFNALRWALEEALKAKLKNLQSSDDLKEAIERMMKLMLEKAQEIQEKGRELADKIEQG", "Log2 enrichment ratio", "log2", -1.45),
    ("Index 18 (designed binder) GGTEDDIKDLAEKWRDDMKKEFLREFLRIKEWTKYWGWREEGRKLATLRWIALSLMHIGDLFNLKELAKKLVDDIKKKGLEHEERAERAREEAEKIMEKAAKLDSILSKLAAKLIEEG", "Log2 enrichment ratio", "log2", 0.98),
    ("Index 23 (designed binder) GEDEEKDHKDTEEKARRLHERARDMLDKVKDLEEKTDAQDNERRRATHDWIAAALMMIGDAFNSFEDTKRRAEKKRELNLISEDEAKEKIKRAEELRKRIYELLKKAAEFAREAEKGG", "Log2 enrichment ratio", "log2", -0.17),
    ("Index 58 (designed binder) GEKAKKLEEYAREEIERALREGGDLMEEEREFGEKTELTTEWKHRAMAYWIAAALMIIGDGFNALQFIEEEGRKFIRKGEFARQKIEEHKERAKERLEKALKQAKKRGDELDRFARLG", "Log2 enrichment ratio", "log2", -2.11),
    ("Index 36 (designed binder) GYTKEWIRDRAKEELDRFADEAKDKADKIRDDFEKRDDKNQIAAELTKKWIAAELEAIGDAFNRAEEAKERLKKLLKLGLTRKEEAEEAAEKLEKLEKEASEKLSKIAHEVSKHDDQG", "Log2 enrichment ratio", "log2", -3.65),
    ("Index 52 (designed binder) GNDKEKFREDVKKKAKYALWKLKKLADEAKERALKFDPSEEMKREFTLEWIAWALEAIGDIFNAWLDGKKYADEAKKQGKARKEEAEETKKEATRIAKEAHEKASELARKILYHMLLG", "Log2 enrichment ratio", "log2", -0.2),
    ("Index 60 (designed binder) GRQEDEIKDEATKRALEILQKLEQKVRKAKKFAKYGLLLQRWWAWITKVWIAAALDAIGDAFNLGEELKRILEELRRRGLSSEEKAQEIKNWIEWLEKWVAIMAKLFGEELEKQFKQG", "Log2 enrichment ratio", "log2", -2.63),
    ("Index 65 (designed binder) GNDLKDIARQIEEQAKKALDDMAKLIRELAEKAEKFYPSKDDIRRLTHYWIAAALMAIGDAFNRLQEARRRAEWLRKWGLRREEEAEKAKKEAEERHERAKELAHKMGDEMEEKLKRG", "Log2 enrichment ratio", "log2", -2.31),
    ("Index 28 (designed binder) GKEGSRLREEAERRGLRKLLEVILRWLEDALRMIYGQDKDEDRKEATHRWIADALELIGDIFNALLEAFIKMELARRFGLLEEQRARDEKKKALERAEEFSKRARELGEKLTQILEGG", "Log2 enrichment ratio", "log2", -2.85),
    ("Index 22 (designed binder) GSSAEDLRDWARDQHEKDVDKMEKRLRLLYFELARKDFNEEELKKATEKWIAAALDAIGDHFNAALKARLLARDAAKKGLIDRNKLDEVEKMAELFEELGERKAALKGREFLRWVLLG", "Log2 enrichment ratio", "log2", -2.4),
    ("Index 07 (designed binder) GEEFKKKLKKWEEWLLKATNEAENQARNMWQKAEQTDLEDQQRIRAVDFWIAIALMAIGDKFNADQEGDEEFEKYKKKGRASEDKIKEAKDERDRAKKRWEQFVKEAGERAFRGEQLG", "Log2 enrichment ratio", "log2", -1.16),
    ("Index 10 (designed binder) GDSDDDDLKDALLRMLWAAAQAIYHSLENMERKEKFDMHFEEERRDTLQWIADALRAIGDAFNEMMRRRRELEKKRENNIISEQRARLYEEFLKRFAEWASRELAKAGKKEANKLNEG", "Log2 enrichment ratio", "log2", 0.62),
    ("Index 35 (designed binder) GGDGVKELEELEKRKDEKKNKAEDRIKKFKDEAKYADDRTEDKEKLAHRWIALALDIIGDAFNLKEEARRRFLRHKFRGELDDSKKEYAEKEMKRFEDDVEKDAEELAQKAKEAFKEG", "Log2 enrichment ratio", "log2", -3.29),
    ("Index 00 (Design BbpD04) (designed binder) GADWKKVLDKAKDIAENRVREIKQKLEEFYKKAMKLDLTQEMRRKLMLEWIAAMLMAIGDIFNAIEQAKQEADKLKKAGQVNSQLLDELKRRLEELKEEASRKCHDYGREFQLKLEYG", "Log2 enrichment ratio", "log2", 3.19),
]
